The reported measurements were obtained from patent US20070243589A1.

Target: T1, biotinylated IL-22 with an N-terminal His/FLAG tag (bio.IL-22H/F) (human, UniProt Q9GZX6 34-179, biotinylated (site not stated))
T1 construct: not shown: N-terminal His/FLAG tag
T1 sequence: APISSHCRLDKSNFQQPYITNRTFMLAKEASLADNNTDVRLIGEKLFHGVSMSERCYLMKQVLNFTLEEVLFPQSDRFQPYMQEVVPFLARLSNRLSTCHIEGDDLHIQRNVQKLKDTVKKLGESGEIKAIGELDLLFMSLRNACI
Experiment: DELFIA competition assay: scFv titrated against bio.IL-22H/F binding to the captured IL-22 receptor complex
experimental readout: IC50 (nM)
Respond with the bare value in nM.

These recorded examples may help you get a feel for the data.
binder | IC50 [nM]
354A08 scFv (non-germlined) (scFv, Optimized clone derived from GIL92) scFv: QVQLVQSGAEKKPGASVKVSCKASGYTFTDYYMHWVRQAPGQGLEWVGWINPYTGGAFYAQKFRGRVTMTRDTSINTAYMELSRLGSDDTAVYYCAREPERFGDSTGQVWGRGTMVTVSSGGGGSGGGGSGGSRSAQAVLTQPSSVSGAPRQRVTISCTGSSSNIGAGYGVHWYQQLPGTAPKLLIYGNSNRPSGVPDRFSGSKSGTSASLAITGLQAEDEADYYCYHWDKEQSGYVFGTGTQLTVLSA | 0.16
368D04 scFv (non-germlined) (scFv, Optimized clone derived from GIL60) scFv: EVQLVESGGGVVRPGGSLRLSCAASGFTFDDYGMNWVRQAPGKGLEWVSGVNWNGGTRDYAASVKGRFTISRDNAKNSLYLQMNSLRAEDTALYYCARGWYSGAAWNMGYWGRGTLVTVSSGGGGSGGGGSGGSGGGSGGGGGGSGGGGSAQAVLTQPSSVSGSPGQSITISCTGASGDVGAYNFVSWYQQHPGKTPKLIIYDVNKRPSGVSNRFSGSKSGNTASLTISGLQAEDESDYYCASLVSDFSVVFGGGTKVTVLGAAAH | 0.32

Below: the item to evaluate.
Request: Which IC50 value is on record for GIL16 scFv (non-germlined parent) (scFv) scFv: QVQLVESGAEVKKPGASVKVSCKASGYTFTSYGISWVRQAPGQGLEWMGWISAYTGNTNYAQKFQGRVTMTTDTSTSTAYMELRSLRSDDTAVYYCARDRGYYDAFDIWGQGTLVTVSSGGGGSGGGGSGGGGSDIQMTQSPSTLSASIGDRVTITCRASEGIYHWLAWYQQKPGKAPKLLIYKASSLASGAPSRFSGSGSGTDFTLTISSLQPDDFATYYCQQYSNYPLTFGGGTKLEIKRAAA ?
Response: 25.9
